These data points were gathered from paper PMC12745498.

testTarget: T1, S. pneumoniae HtrA PDZ domain (residues 285-393) (Streptococcus pneumoniae, UniProt A0A0H2ZQD7 285-393)
T1 construct: HtrA serine protease of Streptococcus pneumoniae, PDZ domain alone, residues 285-393 (the methods print 285-493); cloned downstream of human SUMO1 to give the PDZ with no overhang; source: E. coli BL21(DE3), purified (Ni column, ULP1 cleavage, Ni column, preparative sizing column); not shown: 6xHis, N-terminal, cleaved; hSUMO1, N-terminal, cleaved
T1 sequence (looked up): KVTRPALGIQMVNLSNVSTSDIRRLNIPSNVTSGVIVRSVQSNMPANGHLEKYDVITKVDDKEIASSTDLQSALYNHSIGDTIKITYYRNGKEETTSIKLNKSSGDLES
experimentalProtocol: NMR titration; 250 μM 15N-labeled HtrA PDZ titrated with recombinant β-casein fragments (final 400 μM); 15N-HSQC, global fit of CSPs
conditionsUsed: both partners purified
Ends that are not written are not given here.
property: pKd
Friendly reminder that pKd comes from taking -log10 of the concentration in mol/L.

Incoming: For LNVPGEIVESLSSSEESITRINKKIEKFQSEEQQQTEDELQDKIHPFAQT (domain or fragment, bovine, UniProt P02666 21-70, looked up, ends and bridges not checked, bovine β-casein, residues 21-70; also called N-terminal segment (21-70); source: recombinantly produced in-house with the hSUMO1 system (as for the HtrA PDZ)) [β-casein residues 21-70] , what is its reported pKd?
Outgoing: 3.67
